Hey, just so you know, these numbers are from patent US20220267376A1.

molecular target: MDM2 (Homo sapiens); construct: GST (N); His6 (N); made in house; host or cells: E. coli BL21 (DE3) Rosetta T1R; assay: Surface plasmon resonance (SPR) binding to MDM2; details: Table 1; MDM2
Positions of bridges follow the written chain, without caps; N, C: chain ends. Non-standard residues stand in square brackets, D forms with d. Residues, ends and D or L forms follow the SMILES beside them. ξ: configuration not given here. dTrp(6-F) = N[C@H](Cc1c[nH]c2cc(F)ccc12)C(=O)O; ξPhe(4-CF3) = NC(Cc1ccc(C(F)(F)F)cc1)C(=O)O; S8 = C=CCCCCCC[C@](C)(N)C(=O)O; R5 = C=CCCC[C@@](C)(N)C(=O)O
endpoint name: Kd (nM)
Give the value, in units of nM, as a plain number.

Given the entry CC(C)C[C@@H](NC(=O)[C@@H](CC(C)C)NC(=O)[C@@]1(C)CCC/C=C\CCCCCC[C@](C)(NC(=O)[C@H](N)[C@H](C)O)C(=O)N[C@H](Cc2c[nH]c3cc(F)ccc23)C(=O)N[C@H](Cc2ccc(O)cc2)C(=O)N[C@H](C)C(=O)N[C@H](CC(N)=O)C(=O)NC(Cc2ccc(C(F)(F)F)cc2)C(=O)N[C@H](CCC(=O)O)C(=O)N1)C(=O)N[C@H](CCCNC(=N)N)C(N)=O (stereo partly drawn) [^DPMI-(2-9)] (H-[dT][S8][dTrp(6-F)][dY][dA][dN][ξPhe(4-CF3)][dE][R5][dL][dL][dR]-NH2; staple (Z) 2-9) , report its measured Kd.
7.4
